system-tested: active FYN (human recombinant, 62.7 kDa) (Homo sapiens)
Sequence (P06241 whole entry): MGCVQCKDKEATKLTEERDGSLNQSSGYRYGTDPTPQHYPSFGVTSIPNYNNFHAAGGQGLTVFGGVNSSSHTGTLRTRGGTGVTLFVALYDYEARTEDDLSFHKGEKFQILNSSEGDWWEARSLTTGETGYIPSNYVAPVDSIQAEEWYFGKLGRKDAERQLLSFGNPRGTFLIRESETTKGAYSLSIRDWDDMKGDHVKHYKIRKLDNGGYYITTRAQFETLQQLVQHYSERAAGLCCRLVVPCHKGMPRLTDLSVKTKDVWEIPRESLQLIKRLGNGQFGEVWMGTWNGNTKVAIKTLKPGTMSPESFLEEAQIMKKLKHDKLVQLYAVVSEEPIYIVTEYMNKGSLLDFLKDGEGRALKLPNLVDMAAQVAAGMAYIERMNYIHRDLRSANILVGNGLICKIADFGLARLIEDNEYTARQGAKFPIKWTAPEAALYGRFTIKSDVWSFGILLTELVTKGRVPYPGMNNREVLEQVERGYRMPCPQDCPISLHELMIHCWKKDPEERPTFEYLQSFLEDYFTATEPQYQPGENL
measurement-description: In vitro kinase assay (Z′-LYTE FRET)
Type: biochemical
condition-notes: read-out: IC50(nM) FYN INHIBITION
In plain terms, low IC50, meaning strictly below 40 nM, gives rule met, and everything else gives rule not met.

Some solved entries appear below for comparison.
[[record]]
compound = "Cc1nocc1C(=O)Nc1ccc(CN2CCN(c3nccc(Nc4cc(C5CC5)[nH]n4)n3)CC2)cc1 [Compound 23]"
class = "rule not met"

[[record]]
compound = "O=C(Nc1ccc(CN2CCN(c3nccc(Nc4cc(C5CC5)[nH]n4)n3)CC2)cc1)c1ccc(F)cc1F [Compound 11]"
class = "rule met"

[[record]]
compound = "O=C(Nc1ccc(CN2CCN(c3nccc(Nc4cc(C5CC5)[nH]n4)n3)CC2)cc1)c1cccc(F)c1C(F)(F)F [Compound 12]"
class = "rule met"

[[record]]
compound = "O=C(Nc1ccc(CN2CCN(c3nccc(Nc4cc(C5CC5)[nH]n4)n3)CC2)cc1)c1cccc(C(F)(F)F)c1 [Compound 9]"
class = "rule not met"

[[record]]
compound = "O=C(Nc1ccc(CN2CCN(c3nccc(Nc4cc(C5CC5)[nH]n4)n3)CC2)cc1)c1ccncc1C(F)(F)F [Compound 32]"
class = "rule met"

[[record]]
compound = "O=C(Nc1cnc(CN2CCN(c3nccc(Nc4cc(C5CC5)[nH]n4)n3)CC2)cn1)c1ccccc1C(F)(F)F [Compound 41]"
class = "rule met"

[[record]]
compound = "COc1ccccc1C(=O)Nc1ccc(CN2CCN(c3nccc(Nc4cc(C5CC5)[nH]n4)n3)CC2)cc1 [Compound 7]"
class = "rule not met"

[[record]]
compound = "O=C(Nc1ccc(CN2CCN(c3nccc(Nc4cc(C5CC5)[nH]n4)n3)CC2)cc1)c1cccnc1C(F)(F)F [Compound 27]"
class = "rule met"


Q) Does the reported IC50 of the following compound sit strictly below 40 nM? Cc1nc(C(=O)Nc2ccc(CN3CCN(c4nccc(Nc5cc(C6CC6)[nH]n5)n4)CC3)cc2)co1 [Compound 20]
A) rule not met

Q) Does the reported IC50 of the following compound sit strictly below 40 nM? O=C(Nc1ccc(CN2CCN(c3nccc(Nc4cc(C5CC5)[nH]n4)n3)CC2)nn1)c1ccccc1C(F)(F)F [Compound 42]
A) rule not met

Q) Does the reported IC50 of the following compound sit strictly below 40 nM? O=C(Nc1cccc(C(F)(F)F)c1)c1ccc(CN2CCN(c3nccc(Nc4cc(C5CC5)[nH]n4)n3)CC2)cc1 [Compound 38]
A) rule not met

Q) Does the reported IC50 of the following compound sit strictly below 40 nM? CS(=O)(=O)c1cccc(C(=O)Nc2ccc(CN3CCN(c4nccc(Nc5cc(C6CC6)[nH]n5)n4)CC3)cc2)c1 [Compound 16]
A) rule not met

----------
system-tested: HCK (Homo sapiens)
Sequence (P08631 whole entry): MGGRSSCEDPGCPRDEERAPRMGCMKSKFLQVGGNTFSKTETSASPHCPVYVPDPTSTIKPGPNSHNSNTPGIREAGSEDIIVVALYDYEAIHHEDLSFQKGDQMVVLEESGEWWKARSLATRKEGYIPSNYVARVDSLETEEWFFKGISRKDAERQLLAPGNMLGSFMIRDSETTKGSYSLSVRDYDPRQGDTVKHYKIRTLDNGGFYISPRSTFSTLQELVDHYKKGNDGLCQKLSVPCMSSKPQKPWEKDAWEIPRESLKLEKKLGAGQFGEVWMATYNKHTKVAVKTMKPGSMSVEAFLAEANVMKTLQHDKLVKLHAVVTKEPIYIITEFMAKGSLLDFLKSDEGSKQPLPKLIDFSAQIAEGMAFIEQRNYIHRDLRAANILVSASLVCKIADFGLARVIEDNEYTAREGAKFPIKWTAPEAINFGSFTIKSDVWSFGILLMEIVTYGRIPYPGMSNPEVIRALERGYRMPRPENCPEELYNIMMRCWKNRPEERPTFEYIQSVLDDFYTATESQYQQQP
result-type: IC50 (µM)
Please state the figure in µM; there is no need to write the unit.

Q) State measured IC50 of the compound `O=C(Nc1ccc(CN2CCN(c3nccc(Nc4cc(C5CC5)[nH]n4)n3)CC2)cc1)c1ccccc1C(F)(F)F` with HCK (Homo sapiens).
A) 3.2

----------
system-tested: BLK (Homo sapiens)
Sequence (P51451 whole entry): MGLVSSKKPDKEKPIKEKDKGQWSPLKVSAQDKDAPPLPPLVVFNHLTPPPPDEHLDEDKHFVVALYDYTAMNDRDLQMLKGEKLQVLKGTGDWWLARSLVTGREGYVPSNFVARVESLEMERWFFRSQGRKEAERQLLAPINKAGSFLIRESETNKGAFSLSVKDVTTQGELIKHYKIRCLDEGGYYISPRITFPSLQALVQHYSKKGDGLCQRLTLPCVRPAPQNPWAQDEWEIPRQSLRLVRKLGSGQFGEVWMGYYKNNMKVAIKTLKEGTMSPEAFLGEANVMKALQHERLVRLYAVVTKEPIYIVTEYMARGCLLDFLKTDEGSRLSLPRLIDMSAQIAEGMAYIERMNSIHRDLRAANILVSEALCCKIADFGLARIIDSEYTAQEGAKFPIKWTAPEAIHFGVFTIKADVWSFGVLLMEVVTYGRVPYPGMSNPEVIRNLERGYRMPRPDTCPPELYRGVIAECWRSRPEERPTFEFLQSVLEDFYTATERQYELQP
result-type: pIC50
Friendly reminder that pIC50 comes from taking -log10 of the concentration in mol/L.

Q) State measured pIC50 of the compound O=C(Nc1ccc(CN2CCN(c3nccc(Nc4cc(C5CC5)[nH]n4)n3)CC2)cc1)c1ccccc1C(F)(F)F [Compound 2] with BLK (Homo sapiens).
A) 6.32

----------
measurement-description: Pharmacokinetics in rats
Assay type: in vivo, rat
condition-notes: rat, in vivo, po, 1 mg/kg orally
result-type: bioavailability
# do not omit the unit; it follows the number

Q) # return recorded bioavailability for input O=C(Nc1ccc(CN2CCN(c3nccc(Nc4cc(C5CC5)[nH]n4)n3)CC2)cc1)c1ccccc1C(F)(F)F [Compound 2]
A) 51%

----------
system-tested: FYN (Homo sapiens)
Sequence (P06241 whole entry): as the sequence (P06241 whole entry) above
result-type: IC50 (nM)
Please state the figure in nM; there is no need to write the unit.

Q) State measured IC50 of the compound `O=C(Nc1ccc(CN2CCN(c3nccc(Nc4cc(C5CC5)[nH]n4)n3)CC2)cc1)c1ccccc1C(F)(F)F` with FYN (Homo sapiens).
A) 9

----------
Listed below: log10(IC50) values for each entry.
system-tested: active FYN (human recombinant, 62.7 kDa) (Homo sapiens)
measurement-description: In vitro kinase assay (Z′-LYTE FRET)
Format: biochemical
condition-notes: read-out: IC50(nM) FYN INHIBITION
Note the log scale: values are log10 of IC50 expressed in nM.

Previously resolved entries follow.
[[record]]
molecule = "O=C(Nc1ccc(CN2CCN(c3nccc(Nc4cc(C5CC5)[nH]n4)n3)CC2)cc1)c1ccccc1C(F)(F)F [Compound 2]"
result_type = "log10(IC50)"
value = 0.95

[[record]]
molecule = "Cc1nc(C(=O)Nc2ccc(CN3CCN(c4nccc(Nc5cc(C6CC6)[nH]n5)n4)CC3)cc2)c(C(F)(F)F)o1 [Compound 21]"
result_type = "log10(IC50)"
value = 1.62

[[record]]
molecule = "Cc1cc(CN2CCN(c3nccc(Nc4cc(C5CC5)[nH]n4)n3)CC2)ccc1NC(=O)c1ccccc1F [Compound 17]"
result_type = "log10(IC50)"
value = 1.48

[[record]]
molecule = "O=C(Nc1ccc(CN2CCN(c3nccc(Nc4cc(C5CC5)[nH]n4)n3)CC2)cc1)c1ccccn1 [Compound 24]"
result_type = "log10(IC50)"
value = 3.04


Q) # return recorded log10(IC50) for input COc1ccnc(Nc2ccnc(N3CCN(Cc4ccc(NC(=O)c5ccccc5C(F)(F)F)cc4)CC3)n2)c1 [Compound 45]
A) 2.64

Q) # return recorded log10(IC50) for input O=C(Nc1ccc(CN2CCN(c3nccc(Nc4cc(C5CC5)[nH]n4)n3)CC2)cc1)c1ccccc1 [Compound 1]
A) 1.98

Q) # return recorded log10(IC50) for input Cc1cccnc1C(=O)Nc1ccc(CN2CCN(c3nccc(Nc4cc(C5CC5)[nH]n4)n3)CC2)cc1 [Compound 25]
A) 2.02

Q) # return recorded log10(IC50) for input COc1ncccc1C(=O)Nc1ccc(CN2CCN(c3nccc(Nc4cc(C5CC5)[nH]n4)n3)CC2)cc1 [Compound 28]
A) 2.37

Q) # return recorded log10(IC50) for input CC(C)c1ccccc1C(=O)Nc1ccc(CN2CCN(c3nccc(Nc4cc(C5CC5)[nH]n4)n3)CC2)cc1 [Compound 6]
A) 1.95

Q) # return recorded log10(IC50) for input O=C(Nc1ccc(CN2CCN(c3nccc(Nc4cc(C5CC5)[nH]n4)n3)CC2)cc1)c1ccccc1Cl [Compound 5]
A) 1.36

Q) # return recorded log10(IC50) for input Cc1cc(Nc2cc(C3CC3)n[nH]2)nc(N2CCN(Cc3ccc(NC(=O)c4ccccc4C(F)(F)F)cc3)CC2)n1 [Compound 46]
A) 1.46

Q) # return recorded log10(IC50) for input O=S(=O)(Nc1ccc(CN2CCN(c3nccc(Nc4cc(C5CC5)[nH]n4)n3)CC2)cc1)c1ccccc1F [Compound 40]
A) 2.45

Q) # return recorded log10(IC50) for input CC1CCCN1C(=O)Nc1ccc(CN2CCN(c3nccc(Nc4cc(C5CC5)[nH]n4)n3)CC2)cc1 (stereo not drawn) [Compound 48]
A) 1.57

Q) # return recorded log10(IC50) for input O=C(Nc1ccc(CN2CCN(c3nccc(Nc4cc(C5CC5)[nH]n4)n3)CC2)cc1)NC1CCCC1 [Compound 49]
A) 1.84

----------
system-tested: LCK (Homo sapiens, UniProt P06239)
Sequence (P06239 whole entry): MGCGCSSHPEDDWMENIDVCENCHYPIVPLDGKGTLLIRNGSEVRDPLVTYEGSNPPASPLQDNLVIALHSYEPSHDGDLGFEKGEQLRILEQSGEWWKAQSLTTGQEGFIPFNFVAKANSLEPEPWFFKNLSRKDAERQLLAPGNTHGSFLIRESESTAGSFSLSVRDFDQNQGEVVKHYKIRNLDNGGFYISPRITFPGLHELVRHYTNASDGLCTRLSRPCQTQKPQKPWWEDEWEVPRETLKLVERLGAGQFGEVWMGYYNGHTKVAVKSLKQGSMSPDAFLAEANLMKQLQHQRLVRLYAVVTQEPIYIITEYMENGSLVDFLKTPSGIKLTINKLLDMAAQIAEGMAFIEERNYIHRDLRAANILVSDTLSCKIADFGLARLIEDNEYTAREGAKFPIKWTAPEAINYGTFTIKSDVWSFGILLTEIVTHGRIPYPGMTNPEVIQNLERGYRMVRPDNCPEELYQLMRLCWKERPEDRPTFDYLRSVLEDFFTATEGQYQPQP
result-type: IC50 (nM)
Please state the figure in nM; there is no need to write the unit.

Q) # return recorded IC50 for input `O=C(Nc1ccc(CN2CCN(c3nccc(Nc4cc(C5CC5)[nH]n4)n3)CC2)cc1)c1ccccc1C(F)(F)F`
A) 450

----------
Listed below: IC50 values for each entry.
system-tested: active FYN (human recombinant, 62.7 kDa) (Homo sapiens)
measurement-description: In vitro kinase assay (Z′-LYTE FRET)
Type: biochemical
condition-notes: read-out: IC50(nM) FYN INHIBITION
Please state the figure in nM; there is no need to write the unit.

Previously resolved entries follow.
[[record]]
line_notation = "Cc1nc(C(=O)Nc2ccc(CN3CCN(c4nccc(Nc5cc(C6CC6)[nH]n5)n4)CC3)nc2)c(C(F)(F)F)o1"
result_type = "IC50"
value = 424

[[record]]
line_notation = "O=C(Nc1ccc(CN2CCN(c3nccc(Nc4cc(C5CC5)[nH]n4)n3)CC2)cc1)c1ccccc1F"
result_type = "IC50"
value = 70

[[record]]
line_notation = "O=C(Nc1ccc(CN2CCN(c3nccc(Nc4cc(C5CC5)[nH]n4)n3)CC2)cc1)c1c(F)cccc1C(F)(F)F"
result_type = "IC50"
value = 23

[[record]]
line_notation = "O=C(Nc1ccc(CN2CCN(c3nccc(Nc4cc(C5CC5)[nH]n4)n3)CC2)cc1)c1ccc(F)cc1C(F)(F)F"
result_type = "IC50"
value = 16


Q) # return recorded IC50 for input `CCc1cc(NC(=O)c2ccccc2F)ccc1CN1CCN(c2nc(C)cc(Nc3cc(C4CC4)[nH]n3)n2)CC1`
A) 1020

Q) # return recorded IC50 for input `O=C(Nc1ccc(CN2CCN(c3nccc(Nc4cc(C5CC5)[nH]n4)n3)CC2)nc1)c1ccccc1C(F)(F)F`
A) 27

Q) # return recorded IC50 for input `Cn1ccnc1C(=O)Nc1ccc(CN2CCN(c3nccc(Nc4cc(C5CC5)[nH]n4)n3)CC2)cc1`
A) 1450

Hey, just so you know, these numbers are from patent US10125121B2.
